Field: Tm. Provide a value for each of the molecules that follow.
- System: Nucleic Acid
- assay summary: Binding affinity to calf thymus DNA assessed as increase in melting temperature (reference value: 56.4 degC)
- Type: nucleic-acid assay
- test context: Bos taurus
A complete answer gives the number followed by the unit.

Example cases with answers are listed next.
COc1cc(O)c2c(c1)O[C@@H]1COc3cc(OC)c(OC)cc3[C@]1(O)C2=O	57.3 °C
COc1cc(OCC(O)CN2CCOCC2)c2c(c1)O[C@@H]1COc3cc(OC)c(OC)cc3[C@]1(O)C2=O (mixture of isomers)	65.1 °C
COc1cc(OCC2CO2)c2c(c1)O[C@@H]1COc3cc(OC)c(OC)cc3[C@]1(O)C2=O (mixture of isomers)	59.3 °C
COc1cc(OCC(O)CNCc2ccccc2)c2c(c1)O[C@@H]1COc3cc(OC)c(OC)cc3[C@]1(O)C2=O (mixture of isomers)	68 °C

Now consider the entry below.
Field request: Tm | item: COc1cc(OCC(O)CNCCN2CCOCC2)c2c(c1)O[C@@H]1COc3cc(OC)c(OC)cc3[C@]1(O)C2=O (mixture of isomers) 66.1 °C
